# ASSAY_OVERVIEW: in vivo
# CONDITION_PARAMETERS: Sprague-Dawley, rat, po, 95 mg/kg, Cmax, single oral dose PN 95 mg/kg, rats, stomach

{"MOLECULE": "CCOP(=O)(OCC)OCCCCOC(=O)C(C)c1ccc2cc(OC)ccc2c1 (stereo not shown)", "Cmax": "717 µM"}

---

# ASSAY_OVERVIEW: in vivo
# CONDITION_PARAMETERS: Sprague-Dawley, rat, po, 95 mg/kg, Tmax, single oral dose PN 95 mg/kg, rats, blood

{"COMPOUND": "CCOP(=O)(OCC)OCCCCOC(=O)C(C)c1ccc2cc(OC)ccc2c1 (stereo not shown)", "UNIT_ABBREVIATION": "h", "Tmax": 1}

---

# ASSAY_OVERVIEW: in vivo
# CONDITION_PARAMETERS: Sprague-Dawley, rat, po, 95 mg/kg, Tmax, single oral dose PN 95 mg/kg, rats, cerebellum
RECORDED_ENDPOINT: Tmax (min)

{"COMPOUND": "CCOP(=O)(OCC)OCCCCOC(=O)C(C)c1ccc2cc(OC)ccc2c1 (stereo not shown)", "VAL": 30}

---

# ASSAY_OVERVIEW: in vivo
# CONDITION_PARAMETERS: Sprague-Dawley, rat, po, 95 mg/kg, Tmax, single oral dose PN 95 mg/kg, rats, medulla

{"COMPOUND": "CCOP(=O)(OCC)OCCCCOC(=O)C(C)c1ccc2cc(OC)ccc2c1 (stereo not shown) [PN, phospho-naproxen]", "Tmax [min]": 30}

---

# ASSAY_OVERVIEW: in vivo
# CONDITION_PARAMETERS: Sprague-Dawley, rat, po, 95 mg/kg, Cmax, single oral dose PN 95 mg/kg, rats, vagus nerve
# Procedure: Approximately 800 μL of blood were collected through cardiac puncture and immediately centrifuged. Tissue samples were harvested using separate dissection instruments for each tissue sample to avoid cross contamination, and snap frozen. The levels of the test drug were determined by HPLC. As previously described (Wen et al, 2019), each plasma sample was mixed with double volume of acetonitrile and centrifuged at 13,200 rpm for 15 min. […]
RECORDED_ENDPOINT: Cmax

{"COMPOUND": "CCOP(=O)(OCC)OCCCCOC(=O)C(C)c1ccc2cc(OC)ccc2c1 (stereo not shown) [PN, phospho-naproxen]", "VAL": "24.2 µM"}

---

# ASSAY_OVERVIEW: in vivo
# CONDITION_PARAMETERS: Sprague-Dawley, rat, po, 95 mg/kg, AUC0-24 h, single oral dose PN 95 mg/kg, rats, vagus nerve
# Procedure: Approximately 800 μL of blood were collected through cardiac puncture and immediately centrifuged. Tissue samples were harvested using separate dissection instruments for each tissue sample to avoid cross contamination, and snap frozen. The levels of the test drug were determined by HPLC. As previously described (Wen et al, 2019), each plasma sample was mixed with double volume of acetonitrile and centrifuged at 13,200 rpm for 15 min. […]
RECORDED_ENDPOINT: AUC(0-t) (µM·h)

{"MOLECULE": "CCOP(=O)(OCC)OCCCCOC(=O)C(C)c1ccc2cc(OC)ccc2c1 (stereo not shown)", "RECORDED_ENDPOINT": "AUC(0-t)", "UNIT_ABBREVIATION": "µM·h", "VAL": 63.1}

---

# ASSAY_OVERVIEW: in vivo
# CONDITION_PARAMETERS: Sprague-Dawley, rat, po, 95 mg/kg, Tmax, single oral dose PN 95 mg/kg, rats, vagus nerve
# Protocol: Approximately 800 μL of blood were collected through cardiac puncture and immediately centrifuged. Tissue samples were harvested using separate dissection instruments for each tissue sample to avoid cross contamination, and snap frozen. The levels of the test drug were determined by HPLC. As previously described (Wen et al, 2019), each plasma sample was mixed with double volume of acetonitrile and centrifuged at 13,200 rpm for 15 min. […]

{"MOLECULE": "CCOP(=O)(OCC)OCCCCOC(=O)C(C)c1ccc2cc(OC)ccc2c1 (stereo not shown)", "Tmax / min": 30}

---

# ASSAY_OVERVIEW: in vivo
# CONDITION_PARAMETERS: Sprague-Dawley, rat, po, 95 mg/kg, Cmax, single oral dose PN 95 mg/kg, rats, cerebellum

{"COMPOUND": "CCOP(=O)(OCC)OCCCCOC(=O)C(C)c1ccc2cc(OC)ccc2c1 (stereo not shown) [PN, phospho-naproxen]", "Cmax": "1200 nM"}

---

# ASSAY_OVERVIEW: in vivo
# CONDITION_PARAMETERS: Sprague-Dawley, rat, po, 95 mg/kg, Cmax, single oral dose PN 95 mg/kg, rats, medulla

{"COMPOUND": "CCOP(=O)(OCC)OCCCCOC(=O)C(C)c1ccc2cc(OC)ccc2c1 (stereo not shown)", "Cmax (µM)": 3.1}

---

# ASSAY_OVERVIEW: in vivo
# CONDITION_PARAMETERS: Sprague-Dawley, rat, po, 95 mg/kg, Tmax, single oral dose PN 95 mg/kg, rats, stomach
RECORDED_ENDPOINT: Tmax

{"MOLECULE": "CCOP(=O)(OCC)OCCCCOC(=O)C(C)c1ccc2cc(OC)ccc2c1 (stereo not shown) [PN, phospho-naproxen]", "VAL": "1 h"}

---

# ASSAY_OVERVIEW: in vivo
# CONDITION_PARAMETERS: Sprague-Dawley, rat, po, 95 mg/kg
RECORDED_ENDPOINT: half-life (h)

{"COMPOUND": "CCOP(=O)(OCC)OCCCCOC(=O)C(C)c1ccc2cc(OC)ccc2c1 (stereo not shown) [PN, phospho-naproxen]", "VAL": 9}

---

# ASSAY_OVERVIEW: in vivo
# CONDITION_PARAMETERS: Sprague-Dawley, rat, po, 95 mg/kg, AUC0-24 h, single oral dose PN 95 mg/kg, rats, medulla
RECORDED_ENDPOINT: AUC(0-t)

{"COMPOUND": "CCOP(=O)(OCC)OCCCCOC(=O)C(C)c1ccc2cc(OC)ccc2c1 (stereo not shown)", "VAL": "6.9 µM·h"}
